assay: Diuretic action (urine output for 5 hours after physiological saline loading in rats); format: in vivo, male Wistar rats; conditions: Rattus norvegicus, sc, dose giving urine output of 500 (non-dosed group = 100), 5 hours after saline 20 ml/kg p.o.
Listed compounds paired with reported ED (500% urine output)
Answer format: numeric, mg/kg implied, no suffix.

For orientation, consider the following solved cases.
CN(C(=O)CC(=O)c1ccccc1)[C@H]1CC[C@@]2(O)[C@H]3Cc4ccc(O)c5c4[C@@]2(CCN3CC2CC2)[C@H]1O5 ... 0.206
CCCCOC(=O)N(C)[C@@H]1CC[C@@]2(O)[C@H]3Cc4ccc(O)c5c4[C@@]2(CCN3CC2CC2)[C@H]1O5 ... 2.36

Noted for CN(C(=O)/C=C/c1ccccc1)[C@H]1CC[C@@]2(O)[C@H]3Cc4ccc(O)c5c4[C@@]2(CCN3CC2CC2)[C@H]1O5 : its ED (500% urine output) reads 0.0063

###

experiment: Diuretic action (urine output for 5 hours after physiological saline loading in rats); type: in vivo, male Wistar rats; details: Rattus norvegicus, sc, dose giving urine output of 200 (non-dosed group = 100), 5 hours after saline 20 ml/kg p.o.
Outcome: condition met for ED (200% urine output) of at least 3 µg/kg; condition not met for anything lower.

CN(C(=O)OCc1ccccc1)[C@@H]1CC[C@@]2(O)[C@H]3Cc4ccc(O)c5c4[C@@]2(CCN3CC2CC2)[C@H]1O5 ... condition not met
CN(C(=O)C#Cc1ccccc1)[C@H]1CC[C@@]2(O)[C@H]3Cc4ccc(O)c5c4[C@@]2(CCN3CC2CC2)[C@H]1O5 ... condition not met

Now consider a different molecule.
IN: Exam item: decide whether the reported ED (200% urine output) for CCCCCC(=O)N(C)[C@H]1CC[C@@]2(O)[C@H]3Cc4ccc(O)c5c4[C@@]2(CCN3CC2CC2)[C@H]1O5 is at least 3 µg/kg.
OUT: condition met

###

test system: cultured nerve cells (cerebral cortex); experiment: cells; details: Rattus norvegicus, Cerebral cortex neuron, 24 h, read-out: ED50 (protection against glutamic acid toxicity)
Exam item: assign 1 to entries whose EC50 is below 4000 nM and -1 to entries at or above 4000 nM. Note that a value of exactly 4000 nM receives -1.

# example entries with known answers
CN(C(=O)c1ccccc1)[C@H]1CC[C@@]2(O)[C@H]3Cc4ccc(O)c5c4[C@@]2(CCN3CC2CC2)[C@H]1O5 [Compound 34] ... 1
CN(C(=O)C1CCCCC1)[C@H]1CC[C@@]2(O)[C@H]3Cc4ccc(O)c5c4[C@@]2(CCN3CC2CC2)[C@H]1O5 [Compound 33] ... 1
CN(C(=O)CCc1ccccc1)[C@@H]1CC[C@@]2(O)[C@H]3Cc4ccc(O)c5c4[C@@]2(CCN3CC2CC2)[C@H]1O5 [Compound 57] ... -1
CN(C(=O)/C=C/c1ccoc1)[C@@H]1CC[C@@]2(O)[C@H]3Cc4ccc(O)c5c4[C@@]2(CCN3CC2CC2)[C@H]1O5 [Compound 61] ... -1
CN(C(=O)/C=C/c1cccc(C(F)(F)F)c1)[C@@H]1CC[C@@]2(O)[C@H]3Cc4ccc(O)c5c4[C@@]2(CCN3CC2CC2)[C@H]1O5 [Compound 60] ... 1
CCC/C=C/C(=O)N(C)[C@@H]1CC[C@@]2(O)[C@H]3Cc4ccc(O)c5c4[C@@]2(CCN3CC2CC2)[C@H]1O5 [Compound 100] ... 1

IN: Is the reported EC50 for CN(C(=O)Cc1ccc(Cl)c(Cl)c1)[C@H]1CC[C@@]2(O)[C@H]3Cc4ccc(O)c5c4[C@@]2(CCN3CC2CC2)[C@H]1O5 [Compound 1] strictly below 4000 nM?
OUT: 1

IN: Is the reported EC50 for CO[C@@H](C(=O)N(C)[C@H]1CC[C@@]2(O)[C@H]3Cc4ccc(O)c5c4[C@@]2(CCN3CC2CC2)[C@H]1O5)c1ccccc1 [Compound 30] strictly below 4000 nM?
OUT: -1

Where do the numbers come from? From patent US6177438A.
